All values here come from paper PMC7230911.

- Test system: IL-6
- method description: IL-6 production in LPS-stimulated THP-1 macrophages (ELISA)
- Assay type: cell-based
- measurement setup: Homo sapiens, 8 μg/mL, 1 h pretreatment, then LPS 1 μg/mL 24 h
Hi, to clarify the labels: Condition met covers inhibition at 8 µg/mL from 50% upward, Condition not met covers anything below 50%.

>>> assigned_category("COc1c(C)cc(O)cc1C/C=C(\\C)CC(=O)/C=C(\\C)CCCC(C)(O)C(=O)/C=C/C(C)(C)O (stereo not drawn) [Compound 2, 11-hydroxy-1’-O-methylamentadione]")
"Condition met"
>>> assigned_category("COc1c(C)cc(O)cc1/C=C/C(C)(O)CC(=O)/C=C(\\C)CCCC(C)C(=O)/C=C/C(C)(C)O (stereo not drawn)")
"Condition met"
>>> assigned_category("COc1c(C)cc(O)cc1C/C=C(\\C)CC(=O)/C=C(/C)CCCC(C)(O)C(=O)/C=C/C(C)(C)O (stereo not drawn)")
"Condition met"
>>> assigned_category("COc1c(C)cc(O)cc1C/C=C(\\C)CC(=O)/C=C(/C)CCCC(C)=O")
"Condition not met"
>>> assigned_category("COc1c(C)cc(O)cc1C/C=C(\\C)CC(=O)/C=C(\\C)CCCC(C)=O")
"Condition met"

* * *

Item-by-item account of inhibition at 8 µg/mL
- Tested on: IL-1β
- method description: IL-1β production in LPS-stimulated THP-1 macrophages (ELISA)
- Type: cell-based
- measurement setup: Homo sapiens, 8 μg/mL, 1 h pretreatment, then LPS 1 μg/mL 24 h
quantity kind: inhibition at 8 µg/mL (%)

>>> reported_value("COc1c(C)cc(O)cc1C/C=C(\\C)CC(=O)/C=C(/C)CCCC(C)(O)C(=O)/C=C/C(C)(C)O (centres unmarked) [Compound 1, usneoidone Z]")
74.6
>>> reported_value("COc1c(C)cc(O)cc1C/C=C(\\C)CC(=O)/C=C(\\C)CCCC(C)=O [Compound 3, cystomexicone B]")
35.3
>>> reported_value("COc1c(C)cc(O)cc1C/C=C(\\C)CC(=O)/C=C(\\C)CCCC(C)(O)C(=O)/C=C/C(C)(C)O (centres unmarked) [Compound 2, 11-hydroxy-1’-O-methylamentadione]")
84.4
>>> reported_value("COc1c(C)cc(O)cc1/C=C/C(C)(O)CC(=O)/C=C(/C)CCCC(C)C(=O)/C=C/C(C)(C)O (centres unmarked) [Compound 7, cystodione A]")
44.9
>>> reported_value("COc1c(C)cc(O)cc1/C=C/C(C)(O)CC(=O)/C=C(\\C)CCCC(C)C(=O)/C=C/C(C)(C)O (centres unmarked) [Compound 8, cystodione B]")
44.6

* * *

- System: human lung adenocarcinoma A549 cells
- method description: Cytotoxicity against lung cancer cells A549 (MTT assay)
- Format: cell-based
- measurement setup: Homo sapiens, A549; 72 h of treatment, MTT; mean ± SE
Item-by-item account of IC50
quantity kind: IC50 (µg/mL)

>>> reported_value("COc1c(C)cc(O)cc1C/C=C(\\C)CC(=O)/C=C(/C)CCCC(C)C(=O)/C=C/C(C)(C)O (stereo not drawn) [Compound 5, 6-cis-amentadione-1′-methyl ether]")
4.56
>>> reported_value("COc1c(C)cc(O)cc1/C=C/C(C)(O)CC(=O)/C=C(\\C)CCCC(C)C(=O)/C=C/C(C)(C)O (centres unmarked) [Compound 8, cystodione B]")
13.6
>>> reported_value("COc1c(C)cc(O)cc1C/C=C(\\C)CC(=O)/C=C(\\C)CCCC(C)(O)C(=O)/C=C/C(C)(C)O (centres unmarked) [Compound 2, 11-hydroxy-1’-O-methylamentadione]")
6.61
>>> reported_value("COc1c(C)cc(O)cc1C/C=C(\\C)CC(=O)/C=C(\\C)CCCC(C)C(=O)/C=C/C(C)(C)O (centres unmarked) [Compound 6, amentadione-1′-methyl ether]")
6.19
>>> reported_value("COc1c(C)cc(O)cc1/C=C/C(C)(O)CC(=O)/C=C(/C)CCCC(C)C(=O)/C=C/C(C)(C)O (centres unmarked) [Compound 7, cystodione A]")
9.31
>>> reported_value("COc1c(C)cc(O)cc1C/C=C(\\C)CC(=O)/C=C(\\C)CCCC(C)=O [Compound 3, cystomexicone B]")
24.4
>>> reported_value("COc1c(C)cc(O)cc1C/C=C(\\C)CC(=O)/C=C(/C)CCCC(C)(O)C(=O)/C=C/C(C)(C)O (centres unmarked) [Compound 1, usneoidone Z]")
8.68
>>> reported_value("COc1c(C)cc(O)cc1C/C=C(\\C)CC(=O)/C=C(/C)CCCC(C)=O [Compound 4, cystomexicone A]")
21

* * *

- Test system: THP-1 macrophages
- method description: Cell viability of THP-1 macrophages (SRB assay)
- Format: cell-based, human
- measurement setup: LPS-stimulated THP-1 macrophages, 0–100 µg/mL, 48 and 72 h, data not shown
quantity kind: concentration up to which cell viability is not affected

>>> reported_value("COc1c(C)cc(O)cc1C/C=C(\\C)CC(=O)/C=C(\\C)CCCC(C)C(=O)/C=C/C(C)(C)O (stereo not shown) [Compound 6, amentadione-1′-methyl ether]")
"up to 6 µg/mL"
>>> reported_value("COc1c(C)cc(O)cc1C/C=C(\\C)CC(=O)/C=C(/C)CCCC(C)C(=O)/C=C/C(C)(C)O (stereo not drawn) [Compound 5, 6-cis-amentadione-1′-methyl ether]")
"up to 6 µg/mL"
>>> reported_value("COc1c(C)cc(O)cc1C/C=C(\\C)CC(=O)/C=C(/C)CCCC(C)(O)C(=O)/C=C/C(C)(C)O (stereo not shown) [Compound 1, usneoidone Z]")
"up to 10 µg/mL"
>>> reported_value("COc1c(C)cc(O)cc1/C=C/C(C)(O)CC(=O)/C=C(/C)CCCC(C)C(=O)/C=C/C(C)(C)O (stereo not shown) [Compound 7, cystodione A]")
"up to 10 µg/mL"

* * *

- Tested on: human lung adenocarcinoma A549 cells
- method description: Cytotoxicity against lung cancer cells A549 (MTT assay)
- Assay type: cell-based
- measurement setup: SI = IC50 value for normal cells (MRC-5)/IC50 value for cancer cells (A549)
Item-by-item account of Selectivity Index SI
quantity kind: Selectivity Index SI

>>> reported_value("COc1c(C)cc(O)cc1C/C=C(\\C)CC(=O)/C=C(\\C)CCCC(C)C(=O)/C=C/C(C)(C)O (stereo not shown) [Compound 6, amentadione-1′-methyl ether]")
1.43
>>> reported_value("COc1c(C)cc(O)cc1C/C=C(\\C)CC(=O)/C=C(\\C)CCCC(C)(O)C(=O)/C=C/C(C)(C)O (stereo not shown) [Compound 2, 11-hydroxy-1’-O-methylamentadione]")
1.30
>>> reported_value("COc1c(C)cc(O)cc1C/C=C(\\C)CC(=O)/C=C(/C)CCCC(C)C(=O)/C=C/C(C)(C)O (stereo not drawn) [Compound 5, 6-cis-amentadione-1′-methyl ether]")
1.83
>>> reported_value("COc1c(C)cc(O)cc1C/C=C(\\C)CC(=O)/C=C(/C)CCCC(C)=O [Compound 4, cystomexicone A]")
2.78

* * *

- Tested on: TNF-α
- method description: TNF-α production in LPS-stimulated THP-1 macrophages (ELISA)
- Type: cell-based
- measurement setup: Homo sapiens, 8 μg/mL, 1 h pretreatment, then LPS 1 μg/mL 24 h
quantity kind: inhibition at 8 µg/mL (%)

>>> reported_value("COc1c(C)cc(O)cc1C/C=C(\\C)CC(=O)/C=C(\\C)CCCC(C)=O")
57.1
>>> reported_value("COc1c(C)cc(O)cc1C/C=C(\\C)CC(=O)/C=C(/C)CCCC(C)(O)C(=O)/C=C/C(C)(C)O (stereo not drawn)")
73.1
>>> reported_value("COc1c(C)cc(O)cc1/C=C/C(C)(O)CC(=O)/C=C(\\C)CCCC(C)C(=O)/C=C/C(C)(C)O (stereo not drawn)")
52.6
>>> reported_value("COc1c(C)cc(O)cc1C/C=C(\\C)CC(=O)/C=C(\\C)CCCC(C)(O)C(=O)/C=C/C(C)(C)O (stereo not drawn) [Compound 2, 11-hydroxy-1’-O-methylamentadione]")
64.1

* * *

- System: A549 cells
- method description: Cell cycle analysis of A549 cells by flow cytometry
- Format: cell-based, human
- measurement setup: IC50 concentration, 24 h; control 4.99%
- Description: We next investigated whether the treatment with AMTs 1–8 caused any cell cycle-related event, which inhibit the viability of A549 cell line. […] Figure 5 Effects of meroterpenoids 1–8 on cell cycle distribution of A549 cells. […] (B) Quantitative analysis of cell cycle distribution after treatment. […]
Item-by-item account of cells at S phase
quantity kind: cells at S phase (%)

>>> reported_value("COc1c(C)cc(O)cc1C/C=C(\\C)CC(=O)/C=C(/C)CCCC(C)(O)C(=O)/C=C/C(C)(C)O (stereo not shown)")
17.75
>>> reported_value("COc1c(C)cc(O)cc1/C=C/C(C)(O)CC(=O)/C=C(/C)CCCC(C)C(=O)/C=C/C(C)(C)O (stereo not shown)")
13.69
>>> reported_value("COc1c(C)cc(O)cc1C/C=C(\\C)CC(=O)/C=C(\\C)CCCC(C)(O)C(=O)/C=C/C(C)(C)O (stereo not shown) [Compound 2, 11-hydroxy-1’-O-methylamentadione]")
17.90
>>> reported_value("COc1c(C)cc(O)cc1/C=C/C(C)(O)CC(=O)/C=C(\\C)CCCC(C)C(=O)/C=C/C(C)(C)O (stereo not shown)")
16.73
